- Tested on: SNB-19 CNS
- measurement_notes: NCI tumour cell line growth inhibition, 48 h
TGI reference

Previously resolved entries follow.
| compound | TGI |
| --- | --- |
| CC(C)(C)OC(=O)NCCCCC1NC(=O)[C@@H]2Cc3c([nH]c4ccccc34)C(c3ccccc3)N2C1=O (stereo not given in full) | > 100 µM |
| COc1cc2nccc(Oc3ccc(NC(=O)C4(C(=O)Nc5ccc(F)cc5)CC4)cc3)c2cc1OC | > 100 µM |
| O=C1C(=O)c2c(ccc3ccccc23)-c2ccccc21 | 7.97 µM |
| O=C1Cc2c([nH]c3c(Br)cccc23)-c2ccccc2N1 | > 100 µM |
| Cc1nnc(N)s/c1=N/O | > 100 µM |

Report TGI for Cc1ccc(C)c(C(=O)CC2OC(O)C(Cl)C2Cl)c1 (stereo not given) please.
> 100 µM

For the compound COc1ccc(-c2cc(-c3ccc(Nc4ccnc5cc(C(F)(F)F)ccc45)cc3)nc(N)c2C#N)c2ccccc12 , what TGI is on record?
> 100 µM

Item under review: Oc1ccc(/C=N/Nc2nnc(N/N=C/c3ccc(O)cc3O)c3ccccc23)c(O)c1 . Reported TGI?
7.19 µM

Need TGI of COc1ccc(-c2ccc(/C=N/n3c(COc4ccc(Cl)c(C)c4)nn(CN4CCOCC4)c3=S)o2)c([N+](=O)[O-])c1 , thanks.
> 100 µM

Reported TGI for O=C1c2sccc2C(=O)c2c(CO)csc21 : what is it?
20.8 µM

Reported TGI for c1csc(-c2[nH]nc3c2CCc2ccccc2-3)c1 : what is it?
> 65.9 µM

Entry O=C1Cc2c(-c3ccccc3)cc(-c3ccc(Cl)cc3)nc2-c2ccccc2N1 has what TGI?
6.35 µM

Would you mind telling me what TGI value was observed for CN1OC(CO)CC12C1CC3CC(C1)CC2C3 (stereo not given) ?
> 100 µM

// lookup TGI for CCNC(=O)O/N=C1/C=C2CC[C@@H]3C(CC[C@@]4(C)C3CC[C@@H]4OC(=O)NCC)[C@@]2(C)CC1 (stereo not given in full)
8.21 µM

Entry CCCNc1ncnc2c1cnn2C : reported TGI = ?
> 100 µM

Fill blank: measured TGI of the compound CCCCCCCCCCCCCCCC(=O)OCC(COP(=O)(O)OCCNC(=O)CCSSc1ccccn1)OC(=O)CCCCCCCCCCCCCCC (stereo not given) is ____.
> 100 µM
